Here, each record is paired with measured log10(IC50) data.
- Study Target: platelet P2Y1 receptor (Homo sapiens, UniProt P47900)
- Construct: expressed in transfected cells
- Sequence (P47900 whole entry): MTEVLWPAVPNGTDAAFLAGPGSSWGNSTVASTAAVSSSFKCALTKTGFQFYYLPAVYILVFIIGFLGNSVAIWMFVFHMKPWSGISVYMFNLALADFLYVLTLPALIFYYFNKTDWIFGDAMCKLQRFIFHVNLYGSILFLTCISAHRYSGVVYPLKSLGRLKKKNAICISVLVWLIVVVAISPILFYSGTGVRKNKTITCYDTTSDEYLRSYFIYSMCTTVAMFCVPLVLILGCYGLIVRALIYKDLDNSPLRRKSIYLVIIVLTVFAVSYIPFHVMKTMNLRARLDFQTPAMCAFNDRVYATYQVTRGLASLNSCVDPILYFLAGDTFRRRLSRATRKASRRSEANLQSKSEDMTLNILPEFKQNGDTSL
- Method: P2Y1 receptor binding assay ([β-33P]-2-thiomethyl ADP)
- Assay Setup: binding of 0.3 nM [β-33P]-2-thiomethyl ADP, hP2Y1 expressing 132N1 cell membrane, 25° C., 60 minutes
Metric Name: log10(IC50) (log10 of the value in nM)

INSERT INTO measurements (compound, study_target, metric_name, result_number) VALUES
  ('Cc1cc(Oc2ccccc2NC(=O)Nc2ccc(OC(F)(F)F)cc2)n(-c2ccc(Cl)cc2)n1 [Example 13]', 'platelet P2Y1 receptor (Homo sapiens, UniProt P47900)', 'log10(IC50)', 2.39),
  ('COC(C)c1ccc(NC(=O)Nc2ccccc2Oc2cc(C)nn2-c2ccccc2Cl)cc1 (centres unmarked) [Example 116]', 'platelet P2Y1 receptor (Homo sapiens, UniProt P47900)', 'log10(IC50)', 3.05),
  ('CCOC(=O)C(C)(C)c1ccc(NC(=O)Nc2ccccc2Oc2cc(C)nn2-c2ccccc2Cl)cc1 [Example 83]', 'platelet P2Y1 receptor (Homo sapiens, UniProt P47900)', 'log10(IC50)', 3.53),
  ('Cc1cc(Oc2ccccc2NC(=O)Nc2ccc(OC(F)(F)F)cc2)n(-c2ccccc2Br)n1 [Example 125]', 'platelet P2Y1 receptor (Homo sapiens, UniProt P47900)', 'log10(IC50)', 2.26),
  ('COc1ccc(-n2nc(C)cc2Oc2ccccc2NC(=O)Nc2ccc(OC(F)(F)F)cc2)cc1 [Example 18]', 'platelet P2Y1 receptor (Homo sapiens, UniProt P47900)', 'log10(IC50)', 2.86),
  ('COc1ccccc1-n1nc(C)cc1Oc1ccccc1NC(=O)Nc1ccc(OC(F)(F)F)cc1 [Example 11]', 'platelet P2Y1 receptor (Homo sapiens, UniProt P47900)', 'log10(IC50)', 3.00);
